# STUDY SYSTEM: Huntingtin (Homo sapiens)
# METHOD: mutant huntingtin-calmodulin interaction inhibitors – biochemical, AlphaScreen, primary screen (AID 1671202);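 also: 0% = both proteins with DMSO and 100% = one protein alone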
# MEASUREMENT PARAMETERS: AlphaScreen His-mHTT/GST-CaM binding, luminescence; at 15 µM
Screen size: about 190,000 compounds; about 6,900 (3.6%) were called active. Rule as the data show it: active = inhibition above about 50%; inactive = the rest. Shown is part of a subset that was picked to be rich in actives.
Valid outcomes are listed here; reply with one: active, inactive

Consider the worked cases shown below.
COc1ccc(C2C(=C(O)c3ccc(Cl)cc3)C(=O)C(=O)N2CCCN(C)C)c(OC)c1 (stereo unspecified)
inactive
COc1ccc(-c2csc(=Nc3ccccc3)n2C)cc1
inactive
CCn1cc(-c2ccccc2)cc1C(=O)NCc1ccccn1
inactive
COc1ccc(N2CCN(CC(O)COc3ccc(C(C)=O)cc3)CC2)cc1 (stereo unspecified)
inactive
CCNC(=O)C1Cc2ccc(OC)cc2N2CCN(Cc3ccc(Cl)cc3)CC12 (stereo unspecified)
active

Field: next compound
input: Recorded test outcome, item CCNC(=O)C1Cc2ccc(OC)cc2N2CCN(c3ccccc3OC)CC12 (stereo unspecified)
output: inactive

###

# STUDY SYSTEM: Huntingtin (Homo sapiens)
# METHOD: mutant huntingtin-calmodulin interaction inhibitors – biochemical, AlphaScreen, primary screen (AID 1671202);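 also: 0% = both proteins with DMSO and 100% = one protein alone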
# MEASUREMENT PARAMETERS: AlphaScreen His-mHTT/GST-CaM binding, luminescence; at 15 µM
Among all 190,000 compounds or so, about 6,900 (3.6%) were called active. Rule as the data show it: active = inhibition above about 50%; inactive = the rest. The sample as a whole holds a higher share of actives than the screen did.
Permitted responses: active, inactive

Some entries whose results are on file:
O=C(NC1CCCCC1)C1CC(c2ccc(F)cc2)=NO1 (stereo unspecified)
inactive
CCCc1cc(C2CCCN2Cc2cn[nH]c2-c2cccc(OC)c2)no1 (stereo unspecified)
inactive
COc1ccc([N+](=O)[O-])cc1C1=N/C(=C/c2cccc(F)c2)C(=O)O1
inactive
COc1ccc(C(=O)Nc2ccc(-n3nncc3-c3ccccc3)cc2)cc1
inactive
CCOc1ccc(-c2nn(C)c(C)c2Oc2ccccc2)c(O)c1
inactive

input: Hi team, can someone confirm the assay call for CCN(CC)S(=O)(=O)c1ccc2oc(C(=O)NCC3CCCO3)c(C)c2c1 (stereo unspecified) ?
output: inactive

input: Entry Cc1ccccc1-c1noc(C2CCCN2C(=O)Nc2ccccc2Cl)n1 (stereo unspecified) : call = ?
output: inactive

###

# STUDY SYSTEM: Huntingtin (Homo sapiens)
# METHOD: mutant huntingtin-calmodulin interaction inhibitors – biochemical, AlphaScreen, primary screen (AID 1671202);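 also: 0% = both proteins with DMSO and 100% = one protein alone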
# MEASUREMENT PARAMETERS: AlphaScreen His-mHTT/GST-CaM binding, luminescence; at 15 µM, active compounds read high
In all, about 190,000 compounds went through this assay and about 6,900 (3.6%) were called active. Shown is part of a subset that was picked to be rich in actives.
PARAMETER MEASURED: inhibition (%)
Numbers only here, please. The scale is %.

CCCc1cc(=O)[nH]c(SCC(=O)Nc2cc(C(F)(F)F)ccc2Cl)n1
-6.6
COc1cc(/C=C(\C#N)c2nc3ccccc3[nH]2)ccc1OCC#N
12
CCc1onc(C)c1C1CCCN1C(=O)c1nn(C)cc1Cl (stereo not drawn)
-0.93

input: Quick check: inhibition of `CCOC(=O)N1CCCN(C(=O)OCC)CC1` ?
output: -5.6

input: Can you look up the measured inhibition of `CC(C)(c1ccccc1)c1ccc(OCC(=O)Nc2ncn[nH]2)cc1` for me?
output: 16

input: I'd like to know its inhibition. The molecule in question is `CCCCOc1ccc(/C=C(\C#N)c2nc3ccccc3[nH]2)cc1`
output: -1

input: Data request, read-out inhibition, for N#CC1=C(N)Oc2n[nH]c(C(F)(F)F)c2C1c1cccnc1 (stereo not drawn)
output: -2

input: I have this molecule here, `O=C(Nc1cccc(Cl)c1)Nc1c2c(nn1-c1ccccc1)CSC2` , and I need its recorded inhibition.
output: 15.8

input: For the molecule `CCc1ccc(CNC(=O)c2c(C)sc3c(=O)n(C4CCCC4)cnc23)cc1` , what inhibition is on record?
output: -6.7

input: Please give the measured inhibition for this molecule: `CN1CCN(c2nc3c(c(=O)[nH]c(=O)n3C)n2CC(=O)c2ccc(Cl)cc2)CC1`
output: -4

input: Returns the measured inhibition for the input molecule. Input: CN(C)c1ccc(C2Nc3ccccc3NC3=C2C(=O)CC(c2ccc(Cl)cc2)C3)cc1 (stereo not drawn)
output: 63

input: inhibition for CCC(Sc1nnnn1-c1ccccc1)C(=O)Nc1nnc(C(C)C)s1 (stereo not drawn) ?
output: 6.4
